Sourced from patent US5843990A

tested on: HIV-1; experiment: NCI (Weislow) anti-HIV screen, XTT cell protection, HIV-1 infected CEM-SS; assay type: cell-based; settings: NCI anti-HIV screen
QUANTITY_MEASURED: anti-HIV activity / relative potency in words

{"COMPOUND": "C#CCOc1cc2c(c3oc(=O)cc(CCC)c13)[C@@H](O)[C@H](C)[C@@H](C)O2 (relative stereo) [Compound 8e]", "VALUE_REPORTED": "less potent activities"}
{"COMPOUND": "CCCc1cc(=O)oc2c3c(cc(OC)c12)O[C@H](C)[C@@H](C)[C@@H]3O (relative stereo) [Compound 8b]", "VALUE_REPORTED": "less potent activities"}
{"COMPOUND": "CCCc1cc(=O)oc2c3c(cc(OC(C)CC)c12)O[C@H](C)[C@@H](C)[C@@H]3O (relative stereo) [Compound 8c]", "VALUE_REPORTED": "less potent activities"}

###

Entries and their measured IC50 follow.
tested on: MT4 cells; test: NCI protocol toxicity control: growth of drug-treated, uninfected MT4 cells; format: cell-based; details: Homo sapiens, MT4, Table 4, line of strain DPS

{"COMPOUND": "CCCc1cc(=O)oc2c3c(cc(OC(C)C)c12)O[C@H](C)[C@@H](C)[C@@H]3O", "IC50": "> 20 µM"}
{"COMPOUND": "CCCc1cc(=O)oc2c3c(cc(OC(C)C)c12)O[C@@H](C)[C@H](C)[C@@H]3O [(-)-7a]", "IC50": "12 µM"}

###

test system: HIV-1; test: NCI (Weislow) anti-HIV screen, XTT cell protection, HIV-1 infected CEM-SS; assay type: cell-based; conditions: Weislow assay, criteria of NCI protocol; CEM-SS, HIV-1
QUANTITY_MEASURED: Classification (Active / Moderately Active / Inactive)

{"COMPOUND": "CCCc1cc(=O)oc2c3c(cc(OC(C)C)c12)O[C@H](C)[C@@H](C)[C@@H]3O", "VALUE_REPORTED": "Active"}
{"COMPOUND": "CCCc1cc(=O)oc2c3c(cc(OC)c12)O[C@H](C)[C@@H](C)[C@@H]3O (relative stereo)", "VALUE_REPORTED": "Inactive"}
{"COMPOUND": "CCCc1cc(=O)oc2c3c(cc(OC(C)C)c12)O[C@@H](C)[C@H](C)[C@H]3O [(-)-8a]", "VALUE_REPORTED": "Inactive"}
{"COMPOUND": "CCCc1cc(=O)oc2c3c(cc(OC(C)C)c12)O[C@H](C)[C@@H](C)[C@H]3O", "VALUE_REPORTED": "Inactive"}
{"COMPOUND": "C#CCOc1cc2c(c3oc(=O)cc(CCC)c13)[C@@H](O)[C@H](C)[C@@H](C)O2 (relative stereo)", "VALUE_REPORTED": "Inactive"}
{"COMPOUND": "CCCc1cc(=O)oc2c3c(cc(OC(C)C)c12)O[C@@H](C)[C@H](C)[C@@H]3O [(-)-7a]", "VALUE_REPORTED": "Active"}
